meta.source: patent USRE47689E1

quantity_kind: melting point

Some solved entries appear below for comparison.
INSERT INTO results (compound, observed_result) VALUES
  ('COc1cc(OC)cc(-c2cc3ccc(N4CCCN(C)CC4)cc3oc2=O)c1 [Compound 411]', '151 to 153 °C'),
  ('C[C@@H]1CN(c2ccc3cc(-c4cn5ccsc5n4)c(=O)oc3c2)C[C@H](C)N1 [Compound 167]', '263 to 265 °C'),
  ('O=c1oc2cc(N3CCNCC3)cc(F)c2cc1-c1nc2ccccc2[nH]1 [Compound 375]', '245 to 250 °C');

In plain terms, CCN1CCN(c2ccc3cc(-c4cc5cc(C)ccn5n4)c(=O)oc3c2)CC1 [Compound 307] has a documented melting point of 257 to 259 °C

// field: melting point; key: CN(C)CCN(C)c1ccc2cc(-c3cn4cccnc4n3)c(=O)oc2c1 [Compound 130] ; value = 175 to 180 °C

get_value(item= CCN1CCN(c2ccc3cc(-c4cc5cnc(C)cn5c4)c(=O)oc3c2)CC1 [Compound 640] , readout=melting point) returns 208 to 210 °C

Reported melting point ( Cc1csc(-c2cc3ccc(N4C[C@@H](C)N[C@@H](C)C4)cc3oc2=O)n1 [Compound 286] ) = 178 to 183 °C

Noted for Cc1cn2cc(-c3cc4ccc(N[C@@H]5CCN(C)C5)cc4oc3=O)nc2c(C)n1 [Compound 730] : its melting point reads 226 to 233 °C

Recorded result, Cc1cn2cc(-c3cc4ccc(N5CCNCC5)cc4oc3=O)nc2s1 [Compound 96] , melting point: > 310 °C

The compound listed as CCN1CCN(c2ccc3cc(-c4cn5cc(C)ncc5n4)c(=O)oc3c2)C[C@@H]1C [Compound 627] shows melting point equal to 205 to 208 °C

Query Cc1ccc2oc(-c3cc4ccc(N5CCN6CCC[C@H]6C5)cc4oc3=O)cc2n1 [Compound 722] yields melting point of 228 to 230 °C

So for Cc1ccn2nc(-c3cc4ccc(N5CCCN(C)CC5)cc4oc3=O)cc2c1 [Compound 310] , the logged melting point turned out to be 175 to 177 °C

Kindly note the recorded melting point for Cc1csc(-c2cc3ccc(N4CCNC(C)(C)C4)cc3oc2=O)n1 [Compound 301] , which is 204 to 209 °C

Reported melting point of Cc1cn2cc(-c3cc4ccc(N5CCCNCC5)cc4oc3=O)cc2c(C)n1 [Compound 682] : 187 to 190 °C

Noted for Cc1cn2cc(-c3cc4ccc(C5=CCN(C(C)C)CC5)cc4oc3=O)nc2c(C)n1 [Compound 802] : its melting point reads 207 to 217 °C

For this compound ( O=c1oc2cc(N3CC4CCC(C3)N4)ccc2cc1-c1cn2cccc(F)c2n1 [Compound 506] ), measured melting point is 232 to 235 °C

// field: melting point; key: Cc1nc2ccc(-c3cc4ccc(N5CCN(C)CC5)cc4oc3=O)cc2s1 [Cpd 769] ; value = 215 to 217 °C
